- Tested on: CCRF-CEM leukemia
- Protocol details: NCI-60 one-dose screen, 48 h (100 = growth as untreated, 0 = no growth, -100 = all killed)
- Experimental setup: 10 µM unless noted
This is part of a sample that, as a whole, favours compounds with a hit. Of some 83,000 tested, about 20% had one in any assay. Activity calls are given as the source filed them. Rule for the calls: active = growth percent below 10; inactive = the rest.
Reported growth by item:

>>> assay_value("O=C(O)COc1ccc(Cl)cc1C1CCCCC1")
"92.1% (inactive)"

What is its growth for CCRF-CEM leukemia? Entry: C=C(C)[C@@H]1CC[C@]2(C(=O)OC)CC[C@]3(C)[C@H](CC[C@@H]4[C@@]5(C)C/C(=C/c6cccc(I)c6)C(=O)C(C)(C)[C@@H]5CC[C@]43C)[C@@H]12
97.9% (inactive)

// same read-out, input: Cn1ccnc1C(=O)/C=C/c1ccccc1
9.1% (active)

Ok, now CC(C)(C)c1cc(/C=N\NC(=O)/C=C/C=C/c2ccc3c(c2)OCO3)c(O)c(C(C)(C)C)c1
55.7% (inactive)

One more molecule: COc1cc(/C=C/c2cc(/C=C/c3ccc(O)c(OC)c3)n(-c3c(Cl)cccc3Cl)c(=O)n2)ccc1O
10.4% (inactive)

And what about the molecule C#Cc1cccc(NC(=O)c2ccccc2NC(=O)C=C)c1 ?
106% [8.25 µM] (inactive)

Same question, CCN1CCN(c2nc(NCCNc3ccnc4cc(Cl)ccc34)c3ccccc3n2)CC1 this time
-12.8% (active)
